Target: Rat P2X3 receptor (Rattus norvegicus (Rat), UniProt P49654)
Sequence (P49654 whole entry): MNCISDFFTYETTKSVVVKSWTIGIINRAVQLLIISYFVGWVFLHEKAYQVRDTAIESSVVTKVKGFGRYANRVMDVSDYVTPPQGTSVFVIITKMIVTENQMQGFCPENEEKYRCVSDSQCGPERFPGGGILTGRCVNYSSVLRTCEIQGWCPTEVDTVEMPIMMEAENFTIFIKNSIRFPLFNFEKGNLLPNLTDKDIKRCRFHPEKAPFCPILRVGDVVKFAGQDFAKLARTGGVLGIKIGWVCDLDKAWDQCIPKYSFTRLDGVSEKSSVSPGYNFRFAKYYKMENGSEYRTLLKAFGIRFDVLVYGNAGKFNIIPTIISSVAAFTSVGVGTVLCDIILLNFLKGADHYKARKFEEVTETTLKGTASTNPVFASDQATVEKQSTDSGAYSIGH
Experiment: Evaluation of rat P2X3 receptor inhibitory activity in the presence of rat serum albumin (RSA) (Test Example 3-2)
Details: rat P2X3 receptor in C6BU-1 cells
EXPERIMENTAL_READOUT: pIC50
Formally, pIC50 is defined as -log10 of the concentration c, with c in mol/L.

Record CCCn1c(=O)cc(Nc2ccc(Oc3cccc(C(=O)O)n3)cc2)n(Cc2ccc(Cl)cc2)c1=O . Reported pIC50: 7.77

Lab book: pIC50 of Cc1ccc(Oc2ccc(/N=c3\[nH]cc(NC(=O)[C@H]4C[C@H](O)C4)c(=O)n3Cc3ccc(Cl)cc3)cc2)nn1 noted as 8.30

Reported pIC50 ( Cc1cc(/N=c2\[nH]cc(NC(=O)C3CCOCC3)c(=O)n2Cc2ccc(Cl)cc2)ccc1Oc1ncccc1F ) = 7.89

Data point: N#Cc1cnc(Oc2ccc(Nc3nc(=O)c(C(=O)NC4CCOCC4)cn3Cc3ccc(Cl)cc3)cc2)cn1 ; pIC50 = 8.00

response.value for O=C(O)c1cc(Oc2ccc(/N=c3\[nH]cc(Nc4ccon4)c(=O)n3Cc3ccc(Cl)cc3)cc2)ccn1 (field: pIC50) = 7.85

Further cases:
// pIC50 value for Cc1ccc(Oc2ccc(Nc3nc(=O)c(C(=O)NC4CCOCC4)cn3Cc3ccc(Cl)cc3)cc2)nn1 : 7.64

Measured pIC50 of CCC(=O)Nc1c[nH]/c(=N\c2ccc(Oc3ccc(C(N)=O)nn3)cc2)n(Cc2ccc(Cl)cc2)c1=O : 7.66

Query O=c1c(NC(=O)[C@H]2C[C@H](O)C2)c[nH]/c(=N\c2ccc(Oc3ccc(F)cn3)cc2)n1Cc1ccc(Cl)cc1 yields pIC50 of 8.30

Sample Cc1cc(Oc2ccc(/N=c3\[nH]cc(NC(=O)C4CCOCC4)c(=O)n3Cc3ccc(Cl)cc3)cc2C)no1 ; pIC50 observed: 7.92

Form field pIC50, entry Cc1noc(-c2c[nH]/c(=N\c3ccc(Oc4cccc(C(=O)O)n4)cc3)n(Cc3ccc(Cl)cc3)c2=O)n1 : 7.62

So for Cc1nc(Nc2cc(=O)n([C@@H](C)[C@@H](C)C(=O)O)c(=O)n2Cc2ccc(Cl)cc2)ccc1Oc1ccc(F)nc1 , the logged pIC50 turned out to be 7.92
